test system: LC-2-ad; experiment: relative viability (nuclei count vs DMSO), 5 days (fraction); higher = more cells survive; details: first compound 0.1581 µM
measured-endpoint: relative viability
// print number alone

Answered examples (4):
>  <compound>
CC1(C)CCC(c2ccc(Cl)cc2)=C(CN2CCN(c3ccc(C(=O)NS(=O)(=O)c4ccc(N[C@H](CCN5CCOCC5)CSc5ccccc5)c(S(=O)(=O)C(F)(F)F)c4)cc3)CC2)C1 [Navitoclax] + C[C@]1(O)C[C@@H](c2nc(-c3ccc4ccc(-c5ccccc5)nc4c3)c3c(N)nccn32)C1 [Linsitinib] (partner 1 µM)

>  <system>
LC-2-ad

>  <measured-endpoint>
relative viability

>  <assay-result>
0.789

$$$$
>  <compound>
CC1(C)CCC(c2ccc(Cl)cc2)=C(CN2CCN(c3ccc(C(=O)NS(=O)(=O)c4ccc(N[C@H](CCN5CCOCC5)CSc5ccccc5)c(S(=O)(=O)C(F)(F)F)c4)cc3)CC2)C1 [Navitoclax] + Nc1ncn([C@H]2C[C@H](O)[C@@H](CO)O2)c(=O)n1 [Decitabine] (partner 2 µM)

>  <system>
LC-2-ad

>  <measured-endpoint>
relative viability

>  <assay-result>
0.701

$$$$
>  <compound>
CC1(C)CCC(c2ccc(Cl)cc2)=C(CN2CCN(c3ccc(C(=O)NS(=O)(=O)c4ccc(N[C@H](CCN5CCOCC5)CSc5ccccc5)c(S(=O)(=O)C(F)(F)F)c4)cc3)CC2)C1 [Navitoclax] + O=C(c1cc(Cc2n[nH]c(=O)c3ccccc23)ccc1F)N1CCN(C(=O)C2CC2)CC1 [Olaparib] (partner 8 µM)

>  <system>
LC-2-ad

>  <measured-endpoint>
relative viability

>  <assay-result>
0.698

$$$$
>  <compound>
CC1(C)CCC(c2ccc(Cl)cc2)=C(CN2CCN(c3ccc(C(=O)NS(=O)(=O)c4ccc(N[C@H](CCN5CCOCC5)CSc5ccccc5)c(S(=O)(=O)C(F)(F)F)c4)cc3)CC2)C1 [Navitoclax] + CS(=O)(=O)N1CCN(Cc2cc3nc(-c4cccc5[nH]ncc45)nc(N4CCOCC4)c3s2)CC1 [Pictilisib] (partner 1 µM)

>  <system>
LC-2-ad

>  <measured-endpoint>
relative viability

>  <assay-result>
0.447

$$$$

Query: Which relative viability is reported for this compound? CC1(C)CCC(c2ccc(Cl)cc2)=C(CN2CCN(c3ccc(C(=O)NS(=O)(=O)c4ccc(N[C@H](CCN5CCOCC5)CSc5ccccc5)c(S(=O)(=O)C(F)(F)F)c4)cc3)CC2)C1 [Navitoclax] + CC(C)C[C@H](NC(=O)[C@H](Cc1ccccc1)NC(=O)c1cnccn1)B(O)O [Bortezomib] (partner 0.002 µM)
Reply: 1.01

Query: Please give the result for CC1(C)CCC(c2ccc(Cl)cc2)=C(CN2CCN(c3ccc(C(=O)NS(=O)(=O)c4ccc(N[C@H](CCN5CCOCC5)CSc5ccccc5)c(S(=O)(=O)C(F)(F)F)c4)cc3)CC2)C1 [Navitoclax] + C[C@@H](Oc1cc(-c2cnn(C3CCNCC3)c2)cnc1N)c1c(Cl)ccc(F)c1Cl [Crizotinib] (partner 1 µM) too.
Reply: 0.429

Source: the supplement of paper PMC10307832
